# Tested on: CP237
# EXPERIMENT_NOTES: qHTS profiling for inhibitors of Plasmodium falciparum proliferation (AID 504749); further: nearly all actives have a fitted effect of over 60% in size
# SETUP_CONDITIONS: P. falciparum in erythrocytes, SYBR Green DNA, 72 h; series mostly up to 28.7 µM
Records with an inconclusive call do not appear. Activity calls are given as the source filed them. The call rests on the fitted dose curve; in most records, active means well fitted inhibition curve with a large enough effect; inconclusive means small, poorly fitted or top-dose-only effect; inactive means flat fitted curve, though single readings scatter.
Hello, when you answer, please use one of the following outcomes: T (active), F (inactive)

Sample answers from the record:
INPUT: Record lookup: outcome of this test for Nc1ccc(C(=O)O)c(O)c1 ?
OUTPUT: F

INPUT: Answer briefly: the call reported for Nc1ccc(O)c(C(=O)O)c1 in this assay.
OUTPUT: F

Others:
INPUT: I'd appreciate the recorded outcome for COc1cc(CNC(=O)CCCC/C=C/C(C)C)ccc1O from this test.
OUTPUT: F

INPUT: Each compound tested received a call. Report the one for CCC1C(=O)OCC1Cc1cncn1C (centres undefined) .
OUTPUT: F

INPUT: Can you look up the reported call for c1ccc2sc(SN3CCOCC3)nc2c1 for me?
OUTPUT: F

INPUT: // param item: O=C(O)[C@H](O)[C@@H](O)[C@H](O)[C@H](O)CO ; yields the recorded call
OUTPUT: F

INPUT: Hi team, can someone confirm the assay call for CC1(C)S[C@@H]2[C@H](NC(=O)[C@H](NC(=O)N3CCN(S(C)(=O)=O)C3=O)c3ccccc3)C(=O)N2[C@H]1C(=O)O ?
OUTPUT: F

INPUT: Recorded test outcome, item C#C[C@]1(O)CC[C@H]2[C@@H]3CCc4cc(O)ccc4[C@H]3CC[C@@]21C
OUTPUT: F

INPUT: // outcome(item) with item = N=c1ccn2c(n1)O[C@H]1[C@H](O)[C@@H](CO)O[C@H]12
OUTPUT: F

INPUT: Fill in: this test's call for Cc1ccc(C(=O)c2ccc(CC(=O)O)n2C)cc1 is ___
OUTPUT: F

INPUT: // return assay outcome for Cc1nc2ccccc2n1Cc1ccc(Cl)cc1
OUTPUT: F

INPUT: I'd appreciate the recorded outcome for O=C(Nc1ccc(C(=O)O)c(O)c1)c1ccccc1 from this test.
OUTPUT: F

INPUT: Kindly provide the recorded test outcome for the following compound: c1ccc2sc(SSc3nc4ccccc4s3)nc2c1
OUTPUT: F

INPUT: GET /call?item= CN(C)c1ccc(C(=C2C=CC(=[N+](C)C)C=C2)c2ccccc2)cc1 returns the recorded outcome of this test.
OUTPUT: T

###

# Tested on: CP269
# EXPERIMENT_NOTES: qHTS profiling for inhibitors of Plasmodium falciparum proliferation (AID 504749); further: nearly all actives have a fitted effect of over 60% in size
# SETUP_CONDITIONS: P. falciparum in erythrocytes, SYBR Green DNA, 72 h; series mostly up to 28.7 µM
Records with an inconclusive call do not appear. Activity calls are given as the source filed them. Calls come from the whole dose curve; as a rule, active = well fitted inhibition curve with a large enough effect; inconclusive = small, poorly fitted or top-dose-only effect; inactive = flat fitted curve, though single readings scatter.
Give your call using only these classes: active, inactive

Record excerpt, results attached:
INPUT: What did this assay record as the result for O=C(O)[C@H](O)[C@@H](O)[C@H](O)[C@H](O)CO ?
OUTPUT: inactive

INPUT: So what was the verdict on Nc1ccc(C(=O)O)c(O)c1 in this test?
OUTPUT: inactive

INPUT: Please let me know the test result on file for Nc1c(CC(=O)O)cccc1C(=O)c1ccc(Br)cc1 .
OUTPUT: inactive

INPUT: // outcome(item) with item = CC1(C)S[C@@H]2[C@H](NC(=O)[C@H](NC(=O)N3CCN(S(C)(=O)=O)C3=O)c3ccccc3)C(=O)N2[C@H]1C(=O)O
OUTPUT: inactive

INPUT: I would be grateful if you could indicate the recorded call for O=C(O)[C@H](CC(=O)N1C[C@H]2CCCC[C@H]2C1)Cc1ccccc1 .
OUTPUT: inactive

Further cases:
INPUT: Please let me know the test result on file for C=CC(N)CCC(=O)O (stereo unspecified) .
OUTPUT: inactive

INPUT: Returns: the outcome recorded for O=C(Nc1ccc(C(=O)O)c(O)c1)c1ccccc1 in this assay.
OUTPUT: inactive

INPUT: # fetch the recorded call for [O-][n+]1ccccc1SSc1cccc[n+]1[O-] here
OUTPUT: active

INPUT: Returns: the outcome recorded for C=CCN1C(=O)C(CC(C)C)NC1=S (stereo unspecified) in this assay.
OUTPUT: inactive

INPUT: Can you look up the reported call for O=C(O)COc1ccc(C(=O)c2cccs2)c(Cl)c1Cl for me?
OUTPUT: inactive

INPUT: Tell me the assay call for CCCSc1ccc2nc(NC(=O)OC)[nH]c2c1 please.
OUTPUT: inactive

INPUT: Give the logged outcome of this assay for the following compound: Cc1cc(O)c2ccccc2c1O
OUTPUT: inactive

###

# System: CAOV3
# EXPERIMENT_NOTES: Primary qHTS to identify gynecologic anti-cancer compounds using libraries of approved drugs and bioactive compounds (AID 1345084); further: nearly all actives have a fitted effect of over 55% in size
# SETUP_CONDITIONS: Gynecologic cancer cell panel viability, ATPlite luminescence, 48 h; series mostly up to 57.5 µM
Records with an inconclusive call do not appear. Activity calls are given as the source filed them. Calls come from the whole dose curve; as a rule, active = well fitted cell-killing curve with a large enough effect; inconclusive = small, poorly fitted or top-dose-only effect, or effect the other way; inactive = flat fitted curve, though single readings scatter.
MEASURED_PARAMETER: activity change, negative = cytotoxicity

Check out these entries, answers already filled in.
Value of activity change, negative = cytotoxicity reported for the compound Cc1nc2ccccc2n1Cc1ccc(Cl)cc1 is inactive

The measured activity change, negative = cytotoxicity associated with Nc1cc(-c2ccncc2)c[nH]c1=O reads inactive

activity change, negative = cytotoxicity in this record for CS(=O)(=O)c1ccc(-n2nc(C(F)(F)F)cc2-c2ccc(F)cc2)cc1 : inactive

activity change, negative = cytotoxicity for O=C(O)Cc1ccc2c(c1)C(=O)c1ccccc1CO2 is inactive

Others:
Form field activity change, negative = cytotoxicity, entry CN(C)CCn1nnnc1SCC1=C(C(=O)O)N2C(=O)[C@@H](NC(=O)Cc3csc(N)n3)[C@H]2SC1 : inactive

// field: activity change, negative = cytotoxicity; key: O=C(Nc1ccc2c(c1)CCN(Cc1ncn[nH]1)C2)c1ccccc1-c1ccc(C(F)(F)F)cc1 ; value = inactive

Briefly, activity change, negative = cytotoxicity measured for Cc1c(N)c(=O)n(-c2ccccc2)n1C : inactive

Per the record, Cc1c(Nc2ncccc2C(=O)O)cccc1C(F)(F)F has activity change, negative = cytotoxicity of inactive

# compound O=C(Nc1ccc(C(=O)O)c(O)c1)c1ccccc1 ; its activity change, negative = cytotoxicity = inactive

Entry COc1ccc(-c2cc(=S)ss2)cc1 , activity change, negative = cytotoxicity reported as inactive

Just so you know, measured activity change, negative = cytotoxicity for CC1(C)S[C@@H]2[C@H](NC(=O)[C@H](N)c3ccc(O)cc3)C(=O)N2[C@H]1C(=O)O came out at inactive

###

# TARGET_SYSTEM: Tyrosine-protein phosphatase non-receptor type substrate 1 (Homo sapiens) + Leukocyte surface antigen CD47 (Homo sapiens) (UniProt P78324+Q08722)
# Sequence (P78324 whole entry, looked up, the tested form may be a part): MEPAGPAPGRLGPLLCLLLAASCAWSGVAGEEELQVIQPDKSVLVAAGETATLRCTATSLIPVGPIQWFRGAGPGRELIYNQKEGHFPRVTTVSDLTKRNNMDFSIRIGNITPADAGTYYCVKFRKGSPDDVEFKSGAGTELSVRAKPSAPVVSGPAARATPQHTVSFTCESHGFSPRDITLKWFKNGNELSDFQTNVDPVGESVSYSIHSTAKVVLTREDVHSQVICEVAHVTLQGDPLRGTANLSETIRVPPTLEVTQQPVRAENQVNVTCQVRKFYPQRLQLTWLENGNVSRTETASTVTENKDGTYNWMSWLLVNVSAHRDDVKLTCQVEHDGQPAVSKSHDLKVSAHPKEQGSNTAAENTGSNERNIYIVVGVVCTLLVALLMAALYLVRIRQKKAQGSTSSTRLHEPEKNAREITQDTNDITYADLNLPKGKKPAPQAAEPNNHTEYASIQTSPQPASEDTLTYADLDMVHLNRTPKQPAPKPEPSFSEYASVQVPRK
# Sequence (Q08722 whole entry, looked up, the tested form may be a part): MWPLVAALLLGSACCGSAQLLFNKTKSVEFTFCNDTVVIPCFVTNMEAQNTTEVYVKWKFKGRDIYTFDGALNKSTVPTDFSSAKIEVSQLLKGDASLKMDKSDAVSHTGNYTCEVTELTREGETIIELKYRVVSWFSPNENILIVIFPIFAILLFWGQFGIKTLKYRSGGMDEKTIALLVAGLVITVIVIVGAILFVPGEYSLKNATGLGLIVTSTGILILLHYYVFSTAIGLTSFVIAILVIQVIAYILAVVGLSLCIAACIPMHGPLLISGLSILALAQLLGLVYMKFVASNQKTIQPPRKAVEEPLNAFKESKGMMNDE
# EXPERIMENT_NOTES: CD47-SIRPalpha protein protein interaction - HTRF assay qHTS validation (AID 1347058);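 further: recombinant soluble extracellular CD47 with His tag and biotinylated SIRPalpha domains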
# SETUP_CONDITIONS: TR-FRET HTRF CD47-His / biotin-SIRPalpha binding, ratio 665/615; series mostly up to 38.3 µM
Records with an inconclusive call do not appear. The source made the active and inactive calls. Calls follow the shape of the dose curve; as a rule, active = well fitted curve in the direction sought with a large enough effect in the signal ratio (not every such curve was filed as active); inconclusive = small, poorly fitted or top-dose-only effect, or effect the other way, or a change in a side signal; inactive = no such curve, though single readings can be large or run the other way; the % refers to the signal ratio.
MEASURED_PARAMETER: outcome

Query CC1OC1P(=O)(O)O (stereo not drawn) yields outcome of inactive

Form field outcome, entry CC(=O)SCC[N+](C)(C)C : inactive

For this molecule ( CC(C)NC[C@H](O)COc1cccc2[nH]ccc12 ), measured outcome is inactive

###

# TARGET_SYSTEM: Glutathione peroxidase 1 (Homo sapiens) (UniProt P07203)
# Sequence (P07203 whole entry, looked up): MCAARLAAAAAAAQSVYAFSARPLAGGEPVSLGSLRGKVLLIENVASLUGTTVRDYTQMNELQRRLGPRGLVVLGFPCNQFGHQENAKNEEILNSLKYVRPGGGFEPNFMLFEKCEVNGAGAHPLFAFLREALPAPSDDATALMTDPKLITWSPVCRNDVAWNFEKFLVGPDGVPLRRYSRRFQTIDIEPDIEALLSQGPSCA
# EXPERIMENT_NOTES: Primary qHTS Assay for Inhibitors of Recombinant Selenoprotein Glutathione Peroxidase 1 (GPX1) (AID 1845191); further: nearly all actives have a fitted effect of over 65% in size
# SETUP_CONDITIONS: recombinant GPX1, GR-coupled NADPH fluorescence, 15 min; series mostly up to 48.8 µM
# Experimental: Assay Provider: Elias S.J. Arner MD PhD. Department of Medical Biochemistry and Biophysics Karolinska Institutet, Solna, Stockholm, Sweden […] 5; Detection; Fluorescence; ViewLux microplate reader, excitation 340 nm and emission 450 nm. […] 7; Detection; Fluorescence; ViewLux microplate reader, excitation 340 nm and emission 450 nm. […] 5. Initial fluorescence readout (t=0) at 340/450 nm was measured using a ViewLux multimodal detector (PerkinElmer, Waltham, MA). […]
Inconclusive results are not listed. Calls of active or inactive are those of the source. Calls follow the shape of the dose curve; as a rule, active = well fitted inhibition curve with a large enough effect; inconclusive = small, poorly fitted or top-dose-only effect; inactive = flat fitted curve, though single readings scatter.
Outcomes you can answer with include only these: Yes (active), No (inactive)

INPUT: // return assay outcome for CNCC[C@H](Oc1ccc(C(F)(F)F)cc1)c1ccccc1
OUTPUT: No

INPUT: Tell me the assay call for COC(=O)C1=C(C)NC(C)=C(C(=O)OC)C1c1cccc(NC(=O)NCCCN2CCC(c3cccc(OC)c3)CC2)c1 please.
OUTPUT: No

INPUT: # fetch the recorded call for NO here
OUTPUT: No

INPUT: What outcome does the record of this test show for Cc1cc(NC2CCCCC2)nc(-n2nc(C)cc2C)n1 ?
OUTPUT: No

---
INPUT: Called result for Cc1ccc(C(=O)c2ccc(CC(=O)O)n2C)cc1
OUTPUT: No

INPUT: Record lookup: outcome of this test for CC(=O)SCC[N+](C)(C)C ?
OUTPUT: No

INPUT: Tell me the assay call for CO[C@@]1(NC(=O)Cc2cccs2)C(=O)N2C(C(=O)O)=C(COC(N)=O)CS[C@@H]21 please.
OUTPUT: Yes

INPUT: Could you kindly confirm the outcome this assay logged for Cc1onc(-c2c(F)cccc2Cl)c1C(=O)N[C@@H]1C(=O)N2[C@@H]1SC(C)(C)[C@@H]2C(=O)O ?
OUTPUT: No

INPUT: # fetch the recorded call for CC(C)c1cccc(C(C)C)c1N1C(=O)c2ccc(O)cc2C1=O here
OUTPUT: No

INPUT: GET /call?item= CN(C)CCn1nnnc1SCC1=C(C(=O)O)N2C(=O)[C@@H](NC(=O)Cc3csc(N)n3)[C@H]2SC1 returns the recorded outcome of this test.
OUTPUT: Yes

INPUT: Any idea what this test logged for COc1ccccc1CNCCCCCCNCCCCCCCCNCCCCCCNCc1ccccc1OC ?
OUTPUT: No

INPUT: # lookup: test call for CC(C(=O)O)c1ccc(C(=O)c2cccs2)cc1 (configuration not stated)
OUTPUT: No
